B1: Twister Ribozyme (parent)
chain: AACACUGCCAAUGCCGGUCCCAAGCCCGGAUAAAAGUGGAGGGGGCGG

# Variants of: B1
# TEST NAME: self-cleavage, relative activity (ratio to wild type); higher = more cleavage; co-transcriptional
For each entry below, report its self-cleavage value.
Give only the figure.

Exam item: Tell me the measured self-cleavage of U37C G48C , please.
Marked response: 0.843

Exam item: Tell me the measured self-cleavage of A2C G7A , please.
Marked response: 0.0438

Exam item: Tell me the measured self-cleavage of U18A G48A , please.
Marked response: 0.279

Exam item: Tell me the measured self-cleavage of A23G G29U , please.
Marked response: 0.425

Exam item: Tell me the measured self-cleavage of U31C A33G , please.
Marked response: 0.891

Exam item: Tell me the measured self-cleavage of A1G G44A , please.
Marked response: 0.309

Exam item: Tell me the measured self-cleavage of G13A C20U , please.
Marked response: 0.262

Exam item: Tell me the measured self-cleavage of A22C A40G , please.
Marked response: 0.128

Exam item: Tell me the measured self-cleavage of C20U A32G , please.
Marked response: 0.82

Exam item: Tell me the measured self-cleavage of A4C C9G , please.
Marked response: 0.107

Exam item: Tell me the measured self-cleavage of G43A G48A , please.
Marked response: 0.244

Exam item: Tell me the measured self-cleavage of G16A G36A , please.
Marked response: 0.409
